The measured values listed here are drawn from the supplement of paper PMC9732359.

- experimental protocol: protein stability index of a GFP-peptide fusion (yeast GPS) (PSI 1-4); higher = more stable; sorted into four equal gates, so the index is relative within each strain
- assay context: doa10∆
The following sequences are shown together with reported protein stability index values.
assay endpoint: protein stability index

residue codes	recorded result
FVNGVWHGVHRNPARLM [RPB2]	1.68
YPVYTRLRTLCRDSDDH [DIS3]	2.56
HANAAAVYFADTSGLKI [SIN4]	2.37
TSGTNIAGTFNVGKPDQ [YOR098C/NUP1]	3.22
YSLEAIKLGSTAIGIAT [PUP2]	1.54
LFDAAFYMKKDAVEGVS [RPO31]	2.75
AGADRLQQGMRGAWGKP [RPL10]	3.41
NTTKTADTKAPTFTFGS [YLR335W/NUP2]	3.36
LLVLLQDVIKVLYQSNA [SWP82]	1.84
NEETFTVPELEIPTQIY [ARP9]	2.7
QSISGTLELSAQFRVPR [SWP82]	2.46
GRLLRAMFEICLKRGWG [BRR2]	1.75
SNIDYQTLLANSDHAKF [SNF2]	2.24
GGEKTVAALALLFAINS [SMC1]	1.2
HFQDQKNKKIEVYTKTI [POP7]	3.19
LILAGQVKVKGQLGEMA [YCS4]	3.49
AKLIRSAIEHTTLKSVT [RPO21]	3.46
VPGPGTKLIQYEHNGRT [CSL4]	3
LKLLVKLYTFLARRTDA [RPL18A]	2.26
VSKKELYAIKKVTLNKE [BRR2]	1.73
AIMKPYYLWTGKQVFSL [RPO31]	2.71
VYKIYNHVMPLKPVDKL [SIN4]	1.84
QNQGGAQAPFDIDDLAF [ROX3]	3.55
ILVPDLYHLVIMKFQSL [ECM29]	1.28
KNLKPQEQLKNVKNDVS [YIL149C/MLP2]	3.23
IYNSTDSNSEILNFLNQ [YML103C/NUP188]	3.1
FNRALDQSISKLQSWDK [NNF1]	1.63
EVINKEIENATKDIFPL [RPS1A]	3.25
GNVTELYGTAIGARSQG [PRE5]	2.11
ALSLLYHLLNYDPIKRI [SSN3]	2.56

* * *

- experimental protocol: protein stability index of a GFP-peptide fusion (yeast GPS) (PSI 1-4); higher = more stable; sorted into four equal gates, so the index is relative within each strain
- assay context: doa10∆
The reader will find reported protein stability index values listed item by item below.

residue codes	protein stability index
PKMGVSSSSLECATCHG [RPO31]	2.97
SSTGVPESIDTILSSKL [SRB2]	2.62
YLEDIIGTANYKPLIEE [SMC4]	2.95
QALQMKAMDIPIGRHEE [SWP82]	2.86
FDSLRNFIVHSPMLKRI [GRR1]	2.89
SDKQRRLLAKDAMIAQR [DIS3]	2.29
IKGIREYEEWQKSVSLL [YDL116W/NUP84]	2.08
DSVTTETGKLLSGLAQR [BRN1]	2.5
ELTAQGYDPALLNILSG [RPN2]	2.76
DLKLPPMDAYLKLNHII [SNU114]	3.09
FNYQGDELVLNFENDNE [REC8]	2.9
HILPEVPPVENFPVRQW [TAF14]	2.71
FLVLYDVKTAEEASQLI [NUT1]	1.45
LFAESHDVLQKLNTLSE [YML103C/NUP188]	2.77
